# Study Conditions: in n-propanol, 323.21 K
Property Label: solubility (mole fraction)

* O=P(CCCO)(CCCO)CCCO | 0.0866

* * *

# Study Conditions: in isobutanol, 303.13 K
Property Label: solubility (mole fraction)

* O=P(CCCO)(CCCO)CCCO | 0.019

* * *

# Study Conditions: in n-butanol, 328.23 K
Property Label: solubility (mole fraction)

- O=P(CCCO)(CCCO)CCCO: 0.0369

* * *

# Study Conditions: in isopropanol, 308.15 K
Property Label: solubility (mole fraction)

- O=P(CCCO)(CCCO)CCCO: 0.0224

* * *

# Study Conditions: in n-butanol, 313.17 K
Property Label: solubility (mole fraction)

• O=P(CCCO)(CCCO)CCCO = 0.02

* * *

# Study Conditions: in n-propanol, 313.12 K
Property Label: solubility (mole fraction)

* O=P(CCCO)(CCCO)CCCO | 0.062

* * *

# Study Conditions: in methanol, 323.14 K
Property Label: solubility (mole fraction)

* O=P(CCCO)(CCCO)CCCO | 0.176

* * *

# Study Conditions: in acetone, 293.15 K
Property Label: solubility (mole fraction)

- O=P(CCCO)(CCCO)CCCO: 0.0007

* * *

# Study Conditions: in methanol, 303.15 K
Property Label: solubility (mole fraction)

* O=P(CCCO)(CCCO)CCCO | 0.0702
